test system: PPARg:RXRa 270nM:90nM, anti-RXR (NR concentration 270 nM, RXRa partner concentration 90 nM); test: PBM binding z-score (relative to random genomic background probes); higher = stronger binding; sequences stand for … in GC…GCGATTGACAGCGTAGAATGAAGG
Metric Name: PBM binding z-score
# output: bare number, no unit

Consider the following illustrative entries.
>>> df
                     sequence_content  endpoint_result
0  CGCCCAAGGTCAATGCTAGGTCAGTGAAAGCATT             4.33
1  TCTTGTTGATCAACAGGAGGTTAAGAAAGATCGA             1.01
2  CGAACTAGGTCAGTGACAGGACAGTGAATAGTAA             4.86
3  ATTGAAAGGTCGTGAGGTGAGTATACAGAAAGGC             5.01

The recorded PBM binding z-score for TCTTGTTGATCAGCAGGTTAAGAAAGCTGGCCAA is 1.17

Recorded PBM binding z-score (sequence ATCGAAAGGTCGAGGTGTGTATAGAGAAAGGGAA ): 3.16

###

tested on: RARg:RXRa (NR concentration 270 nM, RXRa partner concentration 90 nM); experiment: PBM binding z-score (relative to random genomic background probes); higher = stronger binding; sequences stand for … in GC…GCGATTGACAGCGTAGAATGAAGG
Assign Yes to entries whose PBM binding z-score meets or exceeds 4; assign No to the rest.

Check out these entries, answers already filled in.
                     sequence_content  answer_label
0  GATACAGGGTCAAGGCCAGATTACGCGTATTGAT           Yes
1  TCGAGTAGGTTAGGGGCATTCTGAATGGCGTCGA            No
2  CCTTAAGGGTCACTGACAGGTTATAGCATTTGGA           Yes
3  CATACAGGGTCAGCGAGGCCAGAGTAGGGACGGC           Yes

Exercise: Does PBM binding z-score meet or surpass 4 for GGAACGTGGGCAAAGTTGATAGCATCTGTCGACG ?
Solution: No

Exercise: Has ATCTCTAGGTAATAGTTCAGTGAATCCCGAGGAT a recorded PBM binding z-score greater than or equal to 4?
Solution: No

Exercise: Form field: PBM binding z-score at least 4? Entry: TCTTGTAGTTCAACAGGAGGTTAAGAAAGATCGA
Solution: Yes

Exercise: Does the reported PBM binding z-score for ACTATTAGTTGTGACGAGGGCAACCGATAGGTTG fall at or above the 4 mark?
Solution: No

Exercise: PBM binding z-score >= 4 for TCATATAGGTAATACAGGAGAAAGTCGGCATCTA ?
Solution: No

Exercise: Is it the case that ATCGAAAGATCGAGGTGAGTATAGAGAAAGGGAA has PBM binding z-score reaching or exceeding 4?
Solution: No

Exercise: Confirm if PBM binding z-score reported for the sequence TAGCCTAGGTCATGCGGGCCAGGATAGTGTCGGC is 4 or above.
Solution: No

###

system: LXRb:RXRa (NR concentration 270 nM, RXRa partner concentration 90 nM); assay: PBM binding z-score (relative to random genomic background probes); higher = stronger binding; sequences stand for … in GC…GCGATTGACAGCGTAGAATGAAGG
Classes are defined on PBM binding z-score with ranges bottom range: < 0.5; center range: ≥ 0.5 and < 2; top range: ≥ 2

Exercise: Each sequence maps to one class by PBM binding z-score. Which class for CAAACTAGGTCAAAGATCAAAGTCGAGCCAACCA ?
Solution: top range

Exercise: Which PBM binding z-score band matches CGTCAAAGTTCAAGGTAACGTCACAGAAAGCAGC ?
Solution: top range

Exercise: Could you tell me which band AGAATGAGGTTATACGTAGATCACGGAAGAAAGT belongs to?
Solution: center range

Exercise: Class label required: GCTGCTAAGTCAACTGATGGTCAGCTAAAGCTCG
Solution: bottom range
